- Test system: panel of purified HLA DR molecules;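 also: competitive inhibition of radiolabeled probe peptide binding to purified HLA DR molecules, with inhibitory potency of unlabeled peptides taken as an approximation of affinity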
- Format: binding, human
- CONDITION_LABEL: Table V B) Correct Predictions; 12 DR molecules listed
ASSAY_ENDPOINT: Total Alleles Bound
Respond with the number and no other words.

MOLECULE	Total Alleles Bound
CC(C)C[C@H](NC(=O)CNC(=O)[C@H](C)NC(=O)[C@H](CC(C)C)NC(=O)[C@@H](NC(=O)[C@H](CO)NC(=O)[C@@H](NC(=O)[C@H](C)NC(=O)[C@H](CC(C)C)NC(=O)[C@H](CCCCN)NC(=O)[C@H](Cc1ccc(O)cc1)NC(=O)[C@@H](N)CCCCN)[C@@H](C)O)C(C)C)C(=O)N[C@@H](CC(C)C)C(=O)NCC(=O)N[C@@H](CC(N)=O)C(=O)O [Peptide F107.09]	9
CC(C)C[C@H](NC(=O)CNC(=O)[C@H](C)NC(=O)[C@@H](N)CC(C)C)C(=O)N[C@@H](CC(C)C)C(=O)NCC(=O)N[C@@H](CC(N)=O)C(=O)N[C@H](C(=O)N[C@@H](CO)C(=O)N[C@H](C(=O)N[C@H](C(=O)N[C@@H](CC(C)C)C(=O)N[C@@H](CC(C)C)C(=O)NCC(=O)NCC(=O)O)C(C)C)[C@@H](C)O)C(C)C [Peptide F107.10]	4

Problem: Sample CC(C)[C@H](NC(=O)[C@H](Cc1ccccc1)NC(=O)[C@@H](N)CCCCN)C(=O)N[C@H](C(=O)N1CCC[C@H]1C(=O)NCC(=O)N[C@@H](C)C(=O)N[C@@H](C)C(=O)N[C@H](C(=O)N1CCC[C@H]1C(=O)N[C@@H](Cc1ccc(O)cc1)C(=O)N[C@@H](C)C(=O)NCC(=O)N[C@@H](CCC(=O)O)C(=O)N1CCC[C@H]1C(=O)O)[C@@H](C)O)C(C)C [Peptide F107.17] — what was its Total Alleles Bound?
Solution: 4

Problem: // next record CSCC[C@H](NC(=O)[C@H](C)NC(=O)[C@H](CC(C)C)NC(=O)[C@@H]1CCCN1C(=O)[C@@H](NC(=O)[C@H](C)NC(=O)[C@H](Cc1c[nH]cn1)NC(=O)[C@H](CC(N)=O)NC(=O)[C@@H](NC(=O)[C@H](Cc1c[nH]c2ccccc12)NC(=O)[C@H](CC(N)=O)NC(=O)[C@H](Cc1c[nH]cn1)NC(=O)[C@@H](N)CCCNC(=N)N)C(C)C)C(C)C)C(=O)N[C@@H](CCCCN)C(=O)N[C@@H](CC(C)C)C(=O)O [Peptide 1188.45]
Solution: 8

* * *

Reported pIC50 values for the following compounds.
- MEASURED_ON: DRB1*0401 (DR4w4) (Homo sapiens, UniProt P01903+P01911, A100K/A169T/F76Y/I96L/K127E/L162R/M171V/N62H/P40V/Q125Y/R42H/S133A/S149N/S66Y/V115G/V209L/W38E)
- Construct: used as sources of human HLA class II molecules; endogenous in cells; host or cells: PREISS (EBV-transformed homozygous B cell line)
- TEST_DETAILS: Class II peptide-binding assay, DR4w4
- CONDITION_LABEL: read-out: DR4w4 nM; Table VIII, In IC50 Format
Square brackets hold non-standard residues; d marks the D form. Peptide text beside a SMILES is read from it.
Units for pIC50: none; it is -log10 of a concentration expressed in mol/L.

Consider the following illustrative entries.
COMPOUND	ASSAY_ENDPOINT	OBSERVED_VALUE
C[C@H](NC(=O)[C@H](N)Cc1ccc(O)cc1)C(=O)N[C@@H](C)C(=O)N[C@@H](Cc1ccccc1)C(=O)N[C@@H](C)C(=O)N[C@@H](C)C(=O)N[C@@H](C)C(=O)N[C@@H](C)C(=O)N[C@H](C(=O)N[C@@H](CCCCN)C(=O)N[C@@H](C)C(=O)N[C@@H](C)C(=O)N[C@@H](C)C(=O)N[C@H](C)C(N)=O)[C@@H](C)O [Peptide 828.10] (H-[dY]AAFAAAATKAAA[dA]-NH2)	pIC50	8.47
CC(C)C[C@H](NC(=O)[C@@H](NC(=O)[C@@H](NC(=O)[C@H](CCC(N)=O)NC(=O)[C@H](CO)NC(=O)[C@H](CCC(N)=O)NC(=O)[C@H](Cc1ccccc1)NC(=O)[C@H](CCCCN)NC(=O)[C@H](C)NC(=O)[C@H](N)Cc1ccc(O)cc1)[C@@H](C)O)[C@@H](C)O)C(=O)N[C@@H](CCCCN)C(=O)N[C@@H](C)C(=O)N[C@@H](CCCCN)C(=O)N[C@@H](C(N)=O)[C@H](C)O [Peptide 858.02] (H-[dY]AKFQSQTTLKAK[dT]-NH2)	pIC50	8.19

Next:
Problem: Sample CC(C)C[C@H](NC(=O)[C@@H](NC(=O)[C@H](C)NC(=O)[C@H](C)NC(=O)[C@H](CCCCN)NC(=O)[C@@H](NC(=O)[C@H](Cc1ccccc1)NC(=O)[C@H](CCCCN)NC(=O)[C@@H](C)N)C(C)C)[C@@H](C)O)C(=O)N[C@@H](CCCCN)C(=O)N[C@@H](C)C(=O)N[C@@H](C)C(=O)N[C@H](C)C(N)=O [Peptide 909.02] (H-[dA]KFVKAATLKAA[dA]-NH2) — what was its pIC50?
Solution: 8.33

* * *

- MEASURED_ON: DRB10404 (DR4w14) (Homo sapiens, UniProt P01903+P01911, A100R/A169T/F76Y/I96L/K127E/L162R/M171V/N62H/P40V/Q125Y/R42H/S133A/S149N/S66Y/V209L/W38E)
- Construct: used as sources of human HLA class II molecules; endogenous in cells; host or cells: BIN40 (EBV-transformed homozygous B cell line)
- TEST_DETAILS: Class II peptide-binding assay, DR4w14;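 also: unlabeled peptides compete with a radiolabeled probe for binding to affinity-purified HLA-DR, neutral pH, class II amount titrated to bind a small fraction of label, IC50 approximates Kd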
- CONDITION_LABEL: read-out: DR4w14 nM (In IC50 Format); purified HLA DR4w14
ASSAY_ENDPOINT: pIC50
Units for pIC50: none; it is -log10 of a concentration expressed in mol/L.

MOLECULE	pIC50
CC[C@H](C)[C@H](NC(=O)[C@@H](NC(=O)[C@@H](NC(=O)[C@H](CCC(=O)O)NC(=O)[C@H](CCCNC(=N)N)NC(=O)CN)[C@@H](C)O)C(C)C)C(=O)N[C@@H](CCC(=O)O)C(=O)N[C@@H](Cc1ccc(O)cc1)C(=O)N[C@@H](CC(C)C)C(=O)N[C@H](C(=O)N[C@@H](CO)C(=O)N[C@@H](Cc1ccccc1)C(=O)NCC(=O)N[C@H](C(=O)N[C@@H](Cc1c[nH]c2ccccc12)C(=O)O)C(C)C)C(C)C [Peptide 802.04]	7.49

Next:
Problem: Sample CC[C@H](C)[C@H](NC(=O)[C@H](CCCNC(=N)N)NC(=O)[C@H](CO)NC(=O)[C@H](Cc1ccccc1)NC(=O)[C@@H](NC(=O)[C@H](CO)NC(=O)[C@H](CO)NC(=O)[C@H](CC(C)C)NC(=O)[C@@H]1CCCN1C(=O)[C@H](CO)NC(=O)[C@H](C)NC(=O)[C@@H](NC(=O)[C@@H](NC(=O)[C@H](CC(C)C)NC(=O)[C@@H](NC(=O)[C@@H]1CCCN1C(=O)[C@@H](N)CC(N)=O)C(C)C)[C@@H](C)O)[C@@H](C)O)[C@@H](C)CC)C(=O)O [Peptide 801.02] — what was its pIC50?
Solution: 8.19

* * *

- MEASURED_ON: DRB1*0401 (DR4w4) (Homo sapiens, UniProt P01903+P01911, A100K/A169T/F76Y/I96L/K127E/L162R/M171V/N62H/P40V/Q125Y/R42H/S133A/S149N/S66Y/V115G/V209L/W38E)
- Construct: used as sources of human HLA class II molecules; endogenous in cells; host or cells: PREISS (EBV-transformed homozygous B cell line)
- TEST_DETAILS: Class II peptide-binding assay, DR4w4
- CONDITION_LABEL: Table V A) Non Predictions; read-out: Binding Capacity DR4w4
Ends that are not written are not given here.
Reported IC50 values for the following sequences.
Could you give the number and then its unit, please?

RECORD_SEQUENCE	ASSAY_ENDPOINT	OBSERVED_VALUE
LFHYYFLSEKAPGSTV [Peptide 1136.04]	IC50	0.02 µM
GPPTALRSFGFAFGYM [Peptide 1136.29]	IC50	4.33 µM

Next:
Problem: Sample WLFPRFKFVWVTYASW [Peptide 1136.44.01] — what was its IC50?
Solution: 0.78 µM

* * *

- MEASURED_ON: DRB1*0401 (DR4w4) (Homo sapiens, UniProt P01903+P01911, A100K/A169T/F76Y/I96L/K127E/L162R/M171V/N62H/P40V/Q125Y/R42H/S133A/S149N/S66Y/V115G/V209L/W38E)
- Construct: used as sources of human HLA class II molecules; endogenous in cells; host or cells: PREISS (EBV-transformed homozygous B cell line)
- TEST_DETAILS: Class II peptide-binding assay, DR4w4;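 also: unlabeled test peptides compete with a radiolabeled probe peptide for binding to affinity-purified HLA-DR, with DR amount titrated to capture a small fraction of label, IC50 approximating Kd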
- CONDITION_LABEL: read-out: DR4w4 nM (In IC50 Format); purified HLA DR4w4
pIC50: −log10 of the molar value. Ends that are not written are not given here.
Answer false if pIC50 is under 8, and true if it is 8 or more.

SUBSTANCE	CLASS_NAME
YARAQSQTTLKAKT-NH2 [Peptide 717.29]	false
YARFQRQTTLKAAA-NH2 [Peptide 717.10]	true
YARFQAQTTLKAKT-NH2 [Peptide 717.55]	true

Problem: Reported pIC50 at or above 8? YARFQSQTTLKSKT-NH2 [Peptide 717.23]
Solution: true

Problem: // next record AFAAAATLKA-NH2 [Peptide 770.01]
Solution: false
